- tgt: Voltage-dependent calcium channel gamma-2 subunit (Mus musculus) + Glutamate receptor 2 (Rattus norvegicus) (UniProt O88602+P19491)
- Sequence (O88602 whole entry, looked up): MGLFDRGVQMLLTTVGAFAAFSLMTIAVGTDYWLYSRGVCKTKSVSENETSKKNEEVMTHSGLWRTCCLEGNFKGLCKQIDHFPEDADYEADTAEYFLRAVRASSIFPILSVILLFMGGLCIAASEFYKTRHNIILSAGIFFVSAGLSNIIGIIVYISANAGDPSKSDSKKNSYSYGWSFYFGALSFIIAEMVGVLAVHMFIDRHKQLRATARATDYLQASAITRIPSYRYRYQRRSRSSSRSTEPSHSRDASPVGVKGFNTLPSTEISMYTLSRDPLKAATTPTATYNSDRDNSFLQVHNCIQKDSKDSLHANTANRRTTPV
- Sequence (P19491 whole entry, looked up): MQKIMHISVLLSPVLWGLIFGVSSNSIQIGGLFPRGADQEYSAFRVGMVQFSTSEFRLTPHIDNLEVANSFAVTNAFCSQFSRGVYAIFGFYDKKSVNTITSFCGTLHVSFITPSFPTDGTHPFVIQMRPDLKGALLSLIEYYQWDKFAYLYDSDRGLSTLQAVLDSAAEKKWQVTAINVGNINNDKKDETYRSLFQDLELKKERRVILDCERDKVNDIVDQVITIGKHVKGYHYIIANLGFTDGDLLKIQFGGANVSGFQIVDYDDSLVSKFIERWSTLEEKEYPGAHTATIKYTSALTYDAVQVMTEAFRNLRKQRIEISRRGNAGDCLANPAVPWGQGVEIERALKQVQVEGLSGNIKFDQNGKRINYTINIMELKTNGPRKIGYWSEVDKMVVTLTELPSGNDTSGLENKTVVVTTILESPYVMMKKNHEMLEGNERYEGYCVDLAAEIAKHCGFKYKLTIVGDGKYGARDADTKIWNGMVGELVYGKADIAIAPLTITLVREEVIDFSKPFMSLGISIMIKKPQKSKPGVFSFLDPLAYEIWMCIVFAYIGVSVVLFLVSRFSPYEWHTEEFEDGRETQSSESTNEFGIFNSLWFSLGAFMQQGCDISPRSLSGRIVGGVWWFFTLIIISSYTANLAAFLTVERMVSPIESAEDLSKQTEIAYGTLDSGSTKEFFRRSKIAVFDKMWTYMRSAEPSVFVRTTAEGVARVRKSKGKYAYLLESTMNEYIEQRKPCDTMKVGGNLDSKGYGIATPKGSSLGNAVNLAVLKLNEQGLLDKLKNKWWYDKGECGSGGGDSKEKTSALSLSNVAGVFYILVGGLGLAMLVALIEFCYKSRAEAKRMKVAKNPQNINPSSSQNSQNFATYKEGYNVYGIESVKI
- protocolNotes: modulators of GluA2-stargazin AMPA receptor complexes, primary screen, cell-based, membrane potential dye (AID 1259245)
- conditionDescription: HEK293 GluA2+stargazin, membrane potential dye (FDSS), glutamate EC50, at 30 µM, hits were called plate by plate, in both directions; compound-alone response (agonism)
The whole screen tested about 40,000 compounds, of which about 1,400 (3.5%) were called active. The entries come from a sample that favours actives as a whole.
Entries are grouped by compound max-min signal into these classes: group 1 = under 0.06, group 2 = from 0.06 up to 0.1, group 3 = 0.1 and over

| compound | answerLabel |
| --- | --- |
| CCOc1ccccc1NC(=O)Cn1nc(-c2cc(C)c(C)cc2C)ccc1=O | group 2 |
| O=C(Nc1cccc(N2CCCS2(=O)=O)c1)c1cccc(F)c1 | group 1 |
| COc1ccccc1CCNC(=O)C(=O)Nc1cc([N+](=O)[O-])ccc1C | group 3 |
| CCSc1nnc(-c2ccc(C)cc2)n1-c1ccccc1 | group 1 |
| CC(C)Sc1ccc(C(=O)Nc2nc(-c3ccccn3)cs2)cc1 | group 3 |

Q: Please report the category associated with `Cc1nn(-c2ccccc2)c2ncc(C(=O)Nc3ccc(F)cc3F)c(Cl)c12` , nothing else.
Ans: group 2

* * *

- tgt: Voltage-dependent calcium channel gamma-2 subunit (Mus musculus) + Glutamate receptor 2 (Rattus norvegicus) (UniProt O88602+P19491)
- protocolNotes: modulators of GluA2-stargazin AMPA receptor complexes, primary screen, cell-based, membrane potential dye (AID 1259245)
- conditionDescription: HEK293 GluA2+stargazin, membrane potential dye (FDSS), glutamate EC50, at 30 µM, hits were called plate by plate, in both directions; compound-alone response (agonism)
The whole screen tested about 40,000 compounds, of which about 1,400 (3.5%) were called active. The sample holds actives, similar compounds and a random draw of the others, so the mix is not that of the screen.
I'd appreciate it if you could supply compound max-min signal values for the items below.
Answers are plain numbers.

| substanceSmiles | numericResult |
| --- | --- |
| CCOc1ccc2nc(N(Cc3ccncc3)C(=O)/C=C/c3cccs3)sc2c1 | 0.107 |
| Cc1cccc(Nc2ccc(N3CCN(S(=O)(=O)c4cccs4)CC3)nn2)n1 | 0.445 |
| COc1ccc(S(=O)(=O)N2CCN(c3ccc4nncn4n3)CC2)cc1C | 0.114 |

Dear colleague, could you please provide compound max-min signal for the molecules listed below?
1. O=S(=O)(c1cccs1)N1CCC(c2ccsc2)CC1
2. O=S(=O)(c1ccc(F)cc1F)N1CCN(c2ccc(-c3cccs3)nn2)CC1
3. COc1ccc(CNC(=O)N2CCC(c3cccs3)CC2)cc1

Ans:
1: 0.115; 2: 0.0403; 3: 0.14

* * *

- tgt: Voltage-dependent calcium channel gamma-2 subunit (Mus musculus) + Glutamate receptor 2 (Rattus norvegicus) (UniProt O88602+P19491)
- protocolNotes: modulators of GluA2-stargazin AMPA receptor complexes, primary screen, cell-based, membrane potential dye (AID 1259245)
- conditionDescription: HEK293 GluA2+stargazin, membrane potential dye (FDSS), glutamate EC50, at 30 µM, hits were called plate by plate, in both directions
Screen size: about 40,000 compounds; about 1,400 (3.5%) were called active.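 How the source made its calls: active means any of four per-well response measures lying three or more SD from its plate-wide compound average, in either direction; inactive means the rest, inconclusive results apart.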 The sample as a whole holds a higher share of actives than the screen did.
# output must be one of active, inactive

Worked set:
| compound | answerLabel |
| --- | --- |
| COc1ccc(CNC(=O)C(=O)NCC2CCN(Cc3cccs3)CC2)cc1 | inactive |
| CCc1nc2sc(C(c3ccc(F)c(F)c3)N3CCN(C(C)=O)CC3)c(O)n2n1 (stereo not drawn) | inactive |
| CCOc1ccc(-c2ccc(=O)n(CCCC(=O)Nc3cc(Cl)ccc3OC)n2)cc1 | inactive |

Q: What did the test return for `COc1ccc(CC(=O)Nc2ccc3c(c2)N(S(=O)(=O)c2ccccc2)CCC3)cc1` ?
Ans: inactive

Q: What is the recorded call for this compound in the test? `NS(=O)(=O)c1ccc(CNC(=O)Cc2csc(Nc3cccc(Cl)c3)n2)cc1`
Ans: inactive

Q: Look up the recorded call for `CCOc1ccc(-c2cc(=O)n(CCCC(=O)Nc3cc(C)ns3)cn2)cc1` in this test.
Ans: active

Q: Given `COc1cc(OC)cc(C(=O)Nc2nnc(-c3cc(OC)c(OC)c(OC)c3)o2)c1` , state the outcome it received in this test.
Ans: active

Q: Status in this test for `O=C(Nc1cc(-c2ccco2)nn1-c1nc(-c2ccccc2)cc(=O)[nH]1)c1ccco1` ?
Ans: inactive

Q: What call does the record list for `COc1cc(C(=O)Nc2nnc(-c3ccc(SC)cc3)o2)cc(OC)c1OC` ?
Ans: inactive

Q: Called result for COC(=O)c1c(NC(=O)CC2NCCNC2=O)sc(C)c1C (stereo not drawn)
Ans: active

Q: Field: outcome | Entry: `COc1ccc2c(c1)c(/C=C1\Oc3cc(O)cc(C)c3C1=O)cn2C`
Ans: active

Q: Each compound tested received a call. Report the one for `CC(=O)c1ccc(NC(=O)CSc2ccc(NC(=O)c3ccco3)nn2)cc1` .
Ans: active

Q: Kindly provide the recorded test outcome for the following compound: `CCn1ccnc1N1CCN(C(=O)c2ccccc2Cl)CC1`
Ans: inactive

Q: Assay outcome for `O=S(=O)(/C=C/c1ccccc1)NCC#CCN1CCc2ccccc2C1` : what was it?
Ans: active

Q: I would be grateful if you could indicate the recorded call for `O=C(c1ccc(Cl)s1)N1CCC(c2ccsc2)CC1` .
Ans: inactive

Q: What outcome does the record of this test show for `O=C(Nc1ccc([N+](=O)[O-])cc1Br)c1ccncc1` ?
Ans: active

Q: Per the assay record, what outcome was assigned to `CC(C)(C)n1ncc2c(=O)n(NC(=O)Cc3ccc([N+](=O)[O-])cc3)cnc21` ?
Ans: inactive

Q: Can you look up the reported call for `COc1ccc(NC(=O)CCc2sc(C)nc2-c2cccs2)cc1OC` for me?
Ans: inactive

Q: Please state the recorded outcome for this compound: `O=C(c1ccc(Cl)c(N2C(=O)CCS2(=O)=O)c1)N1CCc2ccccc2C1`
Ans: inactive

Q: In this assay, the call recorded for `COc1ccc(CNC(=O)N2CCC(c3cccs3)CC2)cc1` was what?
Ans: inactive

Q: What did the test return for `O=C(NCc1ccccc1)N1CCN(c2ccc(-c3ccncc3)nn2)CC1` ?
Ans: inactive

* * *

- tgt: Voltage-dependent calcium channel gamma-2 subunit (Mus musculus) + Glutamate receptor 2 (Rattus norvegicus) (UniProt O88602+P19491)
- protocolNotes: modulators of GluA2-stargazin AMPA receptor complexes, primary screen, cell-based, membrane potential dye (AID 1259245)
- conditionDescription: HEK293 GluA2+stargazin, membrane potential dye (FDSS), glutamate EC50, at 30 µM, hits were called plate by plate, in both directions; measured here: glutamate response slope, % max
The campaign covered roughly 40,000 compounds. About 1,400 (3.5%) were called active. The sample holds actives, similar compounds and a random draw of the others, so the mix is not that of the screen.
quantity: glutamate slope, % of max (%)
Answers are plain numbers, in %.

Consider the worked cases shown below.
| compound | quantity | measurementUnit | numericResult |
| --- | --- | --- | --- |
| CCCCN1CC(c2nc3ccccc3n2CCOc2ccc(C)cc2)CC1=O (stereo not given) | glutamate slope, % of max | % | 78.7 |
| CCN1CC(c2nc3ccccc3n2Cc2ccc(Cl)c(Cl)c2)CC1=O (stereo not given) | glutamate slope, % of max | % | 66.5 |
| CCN1CC(c2nc3ccccc3n2Cc2ccccc2F)CC1=O (stereo not given) | glutamate slope, % of max | % | 50 |
| O=C(NCC1CCN(Cc2ccsc2)CC1)C(=O)Nc1ccon1 | glutamate slope, % of max | % | 57.1 |
| CCS(=O)(=O)N1CCCc2ccc(NS(=O)(=O)c3cc(C)c(C)cc3OC)cc21 | glutamate slope, % of max | % | 69.1 |
| O=C(CCc1ccccc1)NCCS(=O)(=O)N1CCN(Cc2ccccc2)CC1 | glutamate slope, % of max | % | 47.7 |
| CCN1CC(c2nc3ccccc3n2Cc2ccc(Cl)cc2)CC1=O (stereo not given) | glutamate slope, % of max | % | 70.4 |
| CCS(=O)(=O)N1CCCc2cc(NS(=O)(=O)c3cc(C)c(OC)c(C)c3)ccc21 | glutamate slope, % of max | % | 46.4 |
| Cc1nn(C2CCS(=O)(=O)C2)c2nc(-c3ccccc3)cc(C(=O)Nc3ccc(F)cc3F)c12 (stereo not given) | glutamate slope, % of max | % | 54.9 |

Lab note: next compound to report on.
Reported glutamate slope, % of max of `COc1ccc(S(=O)(=O)Nc2ccc3c(c2)CCCN3S(C)(=O)=O)cc1C` : 56.8

The reported numbers originate from PubChem BioAssay AID1259245.
